- System: Mus musculus
- experimental_protocol: Hepatotoxicity in Kunming mouse assessed as serum AST level at 1 g/kg by automatic biochemical analyser (reference value: 133.44 +/- 25.05 U/T)
- Assay type: toxicity, organism-based
- condition_set: in vivo, 1000 mg/kg
reported_property: Activity (U/L)
Reply with just the number (in U/L).

The measured Activity associated with CCCc1nc2c(C)cc(C(=O)NC[C@H](C)c3ccccc3)cc2n1Cc1ccc(-c2ccccc2-c2nnn[nH]2)cc1 reads 141

* * *

- experimental_protocol: Oral bioavailability in Sprague-Dawley rat at 30 mg/kg, by LC-MS/MS
- Format: ADME, organism-based
- condition_set: in vivo
reported_property: bioavailability (%)
Reply with just the number (in %).

The measured bioavailability associated with CCCc1nc2c(C)cc(C(=O)NC[C@H](C)c3ccccc3)cc2n1Cc1ccc(-c2ccccc2-c2nnn[nH]2)cc1 reads 42

* * *

- experimental_protocol: Toxicity in Kunming mouse at 5 g/kg, po assessed as mortality after 2 weeks
- Type: organism-based
- condition_set: in vivo, 5000 mg/kg
reported_property: mortality at 336 h (%)
Reply with just the number (in %).

The measured mortality at 336 h associated with CCCc1nc2c(C)cc(C(=O)NC[C@H](C)c3ccccc3)cc2n1Cc1ccc(-c2ccccc2-c2nnn[nH]2)cc1 reads 90

* * *

- experimental_protocol: Toxicity in Kunming mouse at 1.8 g/kg, po assessed as mortality after 2 weeks
- Assay type: organism-based
- condition_set: in vivo, 1800 mg/kg
reported_property: mortality at 336 h (%)
Reply with just the number (in %).

The measured mortality at 336 h associated with CCCCc1nc(Cl)c(CO)n1Cc1ccc(-c2ccccc2-c2nn[nH]n2)cc1 reads 80

* * *

- experimental_protocol: Terminal half-life in Sprague-Dawley rat at 30 mg/kg, po by LC-MS/MS
- Type: ADME, organism-based
- condition_set: in vivo, read-out: beta t1/2 (converted)
reported_property: half-life (h)
Reply with just the number (in h).

The measured half-life associated with CCCc1nc2c(C)cc(C(=O)NC[C@H](C)c3ccccc3)cc2n1Cc1ccc(-c2ccccc2-c2nnn[nH]2)cc1 reads 13

* * *

- Tested on: Mus musculus
- experimental_protocol: Hepatotoxicity in Kunming mouse assessed as serum ALT level at 0.5 g/kg by automatic biochemical analyser (reference value: 44.33 +/- 6.50 U/T)
- Assay type: toxicity, organism-based
- condition_set: in vivo, 500 mg/kg
reported_property: Activity (U/L)
Reply with just the number (in U/L).

The measured Activity associated with CCCc1nc2c(C)cc(C(=O)NC[C@H](C)c3ccccc3)cc2n1Cc1ccc(-c2ccccc2-c2nnn[nH]2)cc1 reads 42.7

* * *

- target_of_assay: UniProt P30556
- Sequence (P30556 whole entry): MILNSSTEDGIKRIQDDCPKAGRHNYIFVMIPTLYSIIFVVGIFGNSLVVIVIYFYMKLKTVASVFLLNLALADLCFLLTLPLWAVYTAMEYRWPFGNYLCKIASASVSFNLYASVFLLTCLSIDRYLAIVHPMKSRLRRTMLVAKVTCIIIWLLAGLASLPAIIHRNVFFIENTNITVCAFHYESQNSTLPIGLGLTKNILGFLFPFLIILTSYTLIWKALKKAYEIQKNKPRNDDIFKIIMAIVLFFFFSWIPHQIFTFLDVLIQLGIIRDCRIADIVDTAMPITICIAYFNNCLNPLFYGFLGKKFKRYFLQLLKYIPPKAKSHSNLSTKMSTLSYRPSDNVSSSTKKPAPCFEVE
- experimental_protocol: Displacement of [125I]Sar1Ile8-Ang2 from human AT1 receptor expressed in CHO-K1 cell membranes after 180 mins
Reported pIC50 values for the following molecules.
To interpret pIC50, take it as minus log10 of a concentration measured in moles per litre.

Example entries and their recorded answers appear below.
- structure_smiles_string: "CCCc1nc2c(C)cc(C(=S)NC[C@@H](C)c3ccccc3)cc2n1Cc1ccc(-c2ccccc2C(=O)O)cc1"
  target_of_assay: "UniProt P30556"
  pIC50: 6.13
- structure_smiles_string: "CCOc1nc2c(C)cc(C(=O)NC[C@@H](C)c3ccccc3)cc2n1Cc1ccc(-c2ccccc2-c2nnn[nH]2)cc1"
  target_of_assay: "UniProt P30556"
  pIC50: 8.20
- structure_smiles_string: "CCCc1nc2c(C)cc(C(=S)NC[C@H](C)c3ccccc3)cc2n1Cc1ccc(-c2ccccc2C(=O)O)cc1"
  target_of_assay: "UniProt P30556"
  pIC50: 5.95
- structure_smiles_string: "CCCc1nc2c(C)cc(C(=O)NC[C@H](O)c3ccccc3)cc2n1Cc1ccc(-c2ccccc2-c2nnn[nH]2)cc1"
  target_of_assay: "UniProt P30556"
  pIC50: 6.79
- structure_smiles_string: "CSc1nc2c(C)cc(C(=O)NC[C@@H](C)c3ccccc3)cc2n1Cc1ccc(-c2ccccc2-c2nnn[nH]2)cc1"
  target_of_assay: "UniProt P30556"
  pIC50: 6.16

The measured pIC50 associated with CCCSc1nc2c(C)cc(C(=O)NC[C@H](C)c3ccccc3)cc2n1Cc1ccc(-c2ccccc2-c2nnn[nH]2)cc1 reads 8.85

The measured pIC50 associated with CCCc1nc2c(C)cc(C(=O)N[C@@H](COC)c3ccccc3)cc2n1Cc1ccc(-c2ccccc2-c2nnn[nH]2)cc1 reads 7.41

The measured pIC50 associated with CCCc1nc2c(C)cc(C(=O)NC[C@@H](C)c3ccccc3)cc2n1Cc1ccc(-c2ccccc2C(=O)O)cc1 reads 7.39

* * *

- experimental_protocol: Tmax in Sprague-Dawley rat at 30 mg/kg, po by LC-MS/MS
- Format: ADME, organism-based
- condition_set: in vivo
reported_property: Tmax (min)
Reply with just the number (in min).

The measured Tmax associated with CCCc1nc2c(C)cc(C(=O)NC[C@H](C)c3ccccc3)cc2n1Cc1ccc(-c2ccccc2-c2nnn[nH]2)cc1 reads 45

* * *

- Tested on: Mus musculus
- experimental_protocol: Renal toxicity in Kunming mouse assessed as serum urea level at 1 g/kg by automatic biochemical analyser (reference value: 9.95 +/- 1.39 mmol)
- Type: organism-based
- condition_set: in vivo, 1000 mg/kg
reported_property: Activity

The measured Activity associated with CCCc1nc2c(C)cc(C(=O)NC[C@H](C)c3ccccc3)cc2n1Cc1ccc(-c2ccccc2-c2nnn[nH]2)cc1 reads 10 mM

* * *

- experimental_protocol: Volume of distribution at steady state in Sprague-Dawley rat at 3 mg/kg, iv by LC-MS/MS
- Assay type: ADME, organism-based
- condition_set: in vivo, read-out: Vdss
reported_property: Vd (L/kg)
Reply with just the number (in L/kg).

The measured Vd associated with CCCc1nc2c(C)cc(C(=O)NC[C@H](C)c3ccccc3)cc2n1Cc1ccc(-c2ccccc2-c2nnn[nH]2)cc1 reads 11

* * *

- experimental_protocol: AUC in Sprague-Dawley rat at 30 mg/kg, po by LC-MS/MS
- Format: ADME, organism-based
- condition_set: in vivo
reported_property: AUC

The measured AUC associated with CCCc1nc2c(C)cc(C(=O)NC[C@H](C)c3ccccc3)cc2n1Cc1ccc(-c2ccccc2-c2nnn[nH]2)cc1 reads 51500 ng·h/mL
